# target_of_assay: T1, His-tagged P3028 (human, also: His-tag, terminus and sequence not given here)
# T1 construct: in solution at 0.5 ug/mL over the peptide cards; found with anti-His-tag antibody and rabbit anti-mouse peroxidase (rampo); also called PGE73; not shown: His-tag
# T1 peptide: VFDEFKPLVEEPQNLIK
# assay_protocol: PEPSCAN chip ELISA, His-P3028 in solution;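 also: score is the raw OD at 405 nm from peroxidase colour with ABTS, imaged by CCD camera before and after staining, with wells showing air bubbles set to zero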
No end group written: not given here.
test_readout: RAMPO Score (rampo score)
Give your result in rampo score as a bare value.

KKLDTFFVKLSLATER [SEQ ID NO 29] : 525
KKLDTFFVHLSLFTER [SEQ ID NO 488] : 306
KKLDTFFVKLSLMTER [SEQ ID NO 367] : 1190
KKLDTFFVKLMLFTER [SEQ ID NO 346] : 744
KKLDLFFVKLSLFTER [SEQ ID NO 484] : 311
KKLDTFFVKLSCFTER [SEQ ID NO 455] : 342
KPLDTFFVKLSLFTER [SEQ ID NO 405] : 425
KKLDTFFVKLSLRTER [SEQ ID NO 30] : 502

Task item: Identify measured RAMPO Score corresponding to KKLDTFFVKLSLFTQR [SEQ ID NO 450]
Reply: 344

Task item: Identify measured RAMPO Score corresponding to KKLDTFFVKLSLVTER [SEQ ID NO 374]
Reply: 446

Task item: Identify measured RAMPO Score corresponding to KALDTFFVKLSLFTER [SEQ ID NO 485]
Reply: 309

Task item: Identify measured RAMPO Score corresponding to KKVDTFFVKLSLFTER [SEQ ID NO 297]
Reply: 377
